# TESTED ON: AChE (Electrophorus electricus)
# Construct: purchased Sigma-Aldrich C3389-2KU
# Sequence (O42275 24-633): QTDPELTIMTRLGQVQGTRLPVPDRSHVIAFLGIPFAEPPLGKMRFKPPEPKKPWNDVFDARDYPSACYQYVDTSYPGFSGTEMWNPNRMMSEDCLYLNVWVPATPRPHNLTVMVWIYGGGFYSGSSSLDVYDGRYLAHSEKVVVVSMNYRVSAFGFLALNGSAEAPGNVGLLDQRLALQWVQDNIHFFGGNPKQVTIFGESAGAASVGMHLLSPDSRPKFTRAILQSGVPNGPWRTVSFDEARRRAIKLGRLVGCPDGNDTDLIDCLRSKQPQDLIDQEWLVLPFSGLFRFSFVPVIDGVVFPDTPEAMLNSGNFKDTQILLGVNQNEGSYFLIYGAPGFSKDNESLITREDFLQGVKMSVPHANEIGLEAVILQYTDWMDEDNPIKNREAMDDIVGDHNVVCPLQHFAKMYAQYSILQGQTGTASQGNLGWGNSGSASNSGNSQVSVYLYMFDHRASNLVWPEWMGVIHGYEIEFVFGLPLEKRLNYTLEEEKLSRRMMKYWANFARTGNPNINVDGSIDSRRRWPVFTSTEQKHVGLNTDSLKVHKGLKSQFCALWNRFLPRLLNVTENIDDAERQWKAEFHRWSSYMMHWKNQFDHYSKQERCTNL
# PROCEDURE DETAILS: biochemical
# EXPERIMENTAL SETUP: AChE from electric eel; means ± SEM of three experiments; read-out: AchE Inhibition, (IC50)

MOLECULE: COc1ccc(CCNC(=O)COc2cc(O)c3c(c2)OC(c2ccc(OC)c(O)c2)CC3=O)cc1 (centres unmarked)
IC50, nM: 19.5
//
MOLECULE: COc1ccc(C2CC(=O)c3c(O)cc(OCC(=O)NCc4ccc(Cl)cc4)cc3O2)cc1O (centres unmarked)
IC50, nM: 13.6
//
MOLECULE: COc1ccc(C2CC(=O)c3c(O)cc(OCC(=O)NCCc4ccccc4)cc3O2)cc1O (centres unmarked)
IC50, nM: 11.9
//
MOLECULE: COc1cccc(CNC(=O)COc2cc(O)c3c(c2)OC(c2ccc(OC)c(O)c2)CC3=O)c1 (centres unmarked)
IC50, nM: 22.3
//
MOLECULE: COc1ccc(C2CC(=O)c3c(O)cc(OCC(=O)NCc4ccccc4OC)cc3O2)cc1O (centres unmarked)
IC50, nM: 19.2
//
MOLECULE: COc1ccc(C2CC(=O)c3c(O)cc(OCC(=O)NCc4ccc(F)cc4)cc3O2)cc1O (centres unmarked)
IC50, nM: 12.4
//
MOLECULE: COc1ccc(CNC(=O)COc2cc(O)c3c(c2)OC(c2ccc(OC)c(O)c2)CC3=O)cc1 (centres unmarked)
IC50, nM: 17.9
//
MOLECULE: COc1ccc(C2CC(=O)c3c(O)cc(OCC(=O)NCc4ccccc4F)cc3O2)cc1O (centres unmarked)
IC50, nM: 15.2
//
MOLECULE: COc1ccc(C2CC(=O)c3c(O)cc(OCC(=O)NCCc4ccccc4Cl)cc3O2)cc1O (centres unmarked)
IC50, nM: 17.2
//
MOLECULE: COc1ccc(C2CC(=O)c3c(O)cc(OCC(=O)NCCc4ccc(F)cc4)cc3O2)cc1O (centres unmarked)
IC50, nM: 13.5
//
MOLECULE: COc1ccc(C2CC(=O)c3c(O)cc(OCC(=O)NCCc4ccccc4F)cc3O2)cc1O (centres unmarked)
IC50, nM: 20.2
